What IC50 was measured for each of the following?
Biological target: Recombinant human PAD2 (residues 1-665) (Homo sapiens)
Construct: Recombinant human PAD2 (residues 1-665) was expressed in baculovirus-infected Sf9 insect cells; 6His-FLAG (N); made in house; host or cells: baculovirus-infected Sf9 insect cells
Sequence (Q9Y2J8 whole entry, the tested form may be a part): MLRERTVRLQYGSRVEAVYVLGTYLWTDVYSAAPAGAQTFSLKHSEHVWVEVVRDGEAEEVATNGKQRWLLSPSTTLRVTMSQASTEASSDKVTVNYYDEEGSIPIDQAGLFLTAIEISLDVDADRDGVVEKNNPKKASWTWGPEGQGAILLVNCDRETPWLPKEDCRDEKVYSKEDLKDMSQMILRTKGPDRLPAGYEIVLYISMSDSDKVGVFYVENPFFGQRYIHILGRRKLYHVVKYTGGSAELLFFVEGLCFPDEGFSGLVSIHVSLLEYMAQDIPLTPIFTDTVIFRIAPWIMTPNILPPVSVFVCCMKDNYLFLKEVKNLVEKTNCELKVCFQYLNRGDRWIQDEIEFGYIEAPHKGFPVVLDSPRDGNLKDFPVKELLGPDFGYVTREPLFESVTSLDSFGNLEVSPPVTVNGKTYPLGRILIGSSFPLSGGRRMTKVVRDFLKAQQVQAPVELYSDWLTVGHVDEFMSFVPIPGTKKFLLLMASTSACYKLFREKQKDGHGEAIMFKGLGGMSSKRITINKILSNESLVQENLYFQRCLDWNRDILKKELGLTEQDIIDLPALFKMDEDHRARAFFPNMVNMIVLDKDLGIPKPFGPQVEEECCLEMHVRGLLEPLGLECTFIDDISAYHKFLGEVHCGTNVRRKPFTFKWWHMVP
Test: PAD2 enzyme assay (FLINT NH3 release, BAEE substrate)
Assay type: biochemical
Conditions: PAD2 enzyme assay above or similar assays; to assess selectivity for PAD4 over PAD2; read-out: mean pIC50 (converted)
Protocol: Activity of the final product was determined using a FLINT NH3 release assay. 8 μl of PAD2 enzyme diluted to an assay concentration of 30 nM in assay buffer (100 mM HEPES, 50 mM NaCl, 2 mM DTT, 7.5% glycerol and 1.5 mM CHAPS pH 8), and added to wells containing 0.1 μl of various concentrations of compound or DMSO vehicle (0.8% final) in a Greiner high volume 384 well black plate. […]

IC50 for CCn1c(-c2nc3cc(C(=O)N4CCC[C@@H](N)C4)cc(OC(F)(F)F)c3n2C)cc2ccccc21 ? ≥ 10 µM

Field entry: Cn1c(-c2cc3ccccc3[nH]2)nc2cc(C(=O)N3CCC[C@@H](N)C3)ccc21 ≥ 10 µM

Field entry: CCn1c(-c2nc3cc(C(=O)N4CCC[C@@H](N)C4)ccc3n2CC)cc2ccccc21 > 79.4 µM

Field entry: CCn1c(-c2nc3cc(C(=O)N4CCC[C@@H](N)C4)cc(OCC(N)=O)c3n2C)cc2ccccc21 > 79.4 µM

Field entry: COc1cc(C(=O)N2CCC[C@@H](N)C2)cc2nc(-c3cc4ccccc4n3CC3CCOCC3)n(C)c12 > 79.4 µM

Field entry: CCn1c(-c2nc3cc(C(=O)N4CCC[C@@H](N)C4)cc(OCC#N)c3n2C)cc2ccccc21 ≥ 10 µM

Field entry: Cn1c(-c2nc3cc(C(=O)N4CCC[C@@H](N)C4)ccc3n2C)cc2ccccc21 > 79.4 µM

Field entry: Cn1c(-c2cc3ccccc3n2CCO)nc2cc(C(=O)N3CCC[C@@H](N)C3)ccc21 > 79.4 µM
